Target: Casp-2 (Homo sapiens, UniProt P42575)
Construct: the Caspase-2 and Caspase-3 are human recombinant active enzymes; purchased Enzo Life ALX-201-057-U100
Sequence (P42575 170-325 limits assumed): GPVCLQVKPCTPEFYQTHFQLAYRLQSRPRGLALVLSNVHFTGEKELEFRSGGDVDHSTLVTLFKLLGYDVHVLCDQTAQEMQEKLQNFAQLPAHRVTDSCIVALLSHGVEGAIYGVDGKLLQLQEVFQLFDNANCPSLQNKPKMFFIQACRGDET
Sequence (P42575 348-452 limits assumed): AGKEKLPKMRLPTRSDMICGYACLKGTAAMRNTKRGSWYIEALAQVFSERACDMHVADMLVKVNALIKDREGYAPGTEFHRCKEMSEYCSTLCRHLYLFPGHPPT
Experiment: Caspase-2 inhibition assay for reversible inhibitors (IC50, Ki, dilution method)
Assay type: biochemical
Details: secondary plot of Lineweaver-Burk
Where a SMILES comes first, the peptide text is derived from it.
Assign Ki to each entry below.
Give the number; nM is assumed, so skip it.

Just so you know, measured Ki for CC(=O)N[C@H](C(=O)N[C@@H](CC(=O)O)C(=O)N[C@H](C(=O)N[C@@H](C)C(=O)N[C@H](C=O)CC(=O)O)C(C)C)C(C)C [Ac-VDVAD-CHO] (Ac-VDVAD-aldehyde) came out at 6.31

Measured Ki, CC(=O)N[C@@H](CC(=O)O)C(=O)N[C@@H](CCC(=O)O)C(=O)N[C@H](C(=O)N[C@H](C=O)CC(=O)O)C(C)C : 3220
